Biological target: human Tissue Factor (TF) (human, UniProt P13726 33-295)
Experiment: cell-based or functional assay
Threshold 9%: % IL8 at 6.4 nM antibody strictly smaller gives MET, otherwise NOT MET.

43B7 (antibody, human IgG1, V domains shown) VH: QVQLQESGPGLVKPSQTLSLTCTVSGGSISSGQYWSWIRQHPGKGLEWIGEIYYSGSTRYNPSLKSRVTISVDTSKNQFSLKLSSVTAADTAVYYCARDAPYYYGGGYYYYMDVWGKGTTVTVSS VL: EIVLTQSPGTLSLSPGERATLSCRASESVDSSYLAWYQQKPGQAPRLLIYGADSRATGIPDRFSGSGSGTDFTLTISRLEPEDFAVYYCQQDGVVPYTFGGGTKVEIK :: NOT MET
39A (antibody, human IgG1, V domains shown, Human IgG1; also called antibody designated 39A) VH: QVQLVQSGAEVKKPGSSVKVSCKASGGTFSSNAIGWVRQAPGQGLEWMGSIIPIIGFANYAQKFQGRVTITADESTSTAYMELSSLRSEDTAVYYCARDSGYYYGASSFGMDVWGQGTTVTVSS VL: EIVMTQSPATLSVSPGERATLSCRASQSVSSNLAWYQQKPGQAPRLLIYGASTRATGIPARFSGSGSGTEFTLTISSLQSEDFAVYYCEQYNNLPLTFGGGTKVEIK :: MET
43D (antibody, human IgG1, V domains shown) VH: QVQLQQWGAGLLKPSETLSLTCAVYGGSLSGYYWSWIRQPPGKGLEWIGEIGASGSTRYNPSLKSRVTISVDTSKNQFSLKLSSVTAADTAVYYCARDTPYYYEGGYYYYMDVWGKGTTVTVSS VL: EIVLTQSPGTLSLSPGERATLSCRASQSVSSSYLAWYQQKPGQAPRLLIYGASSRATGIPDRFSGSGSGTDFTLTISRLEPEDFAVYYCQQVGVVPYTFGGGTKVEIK :: NOT MET

Let us examine a further case.
Query: hey, is % IL8 at 6.4 nM antibody for 54E (antibody, human IgG1, V domains shown, Human IgG1; also called antibody designated 54E) VH: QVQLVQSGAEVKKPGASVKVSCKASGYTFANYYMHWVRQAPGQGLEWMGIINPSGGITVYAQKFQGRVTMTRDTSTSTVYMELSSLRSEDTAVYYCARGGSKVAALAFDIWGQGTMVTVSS VL: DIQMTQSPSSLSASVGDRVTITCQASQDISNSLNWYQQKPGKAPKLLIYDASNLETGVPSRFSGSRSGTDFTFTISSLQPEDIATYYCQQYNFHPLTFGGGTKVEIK lower than 9% or not?
Reply: MET
